method-description: ATG_RORE_CIS: Attagene CIS-FACTORIAL HepG2 Assay for human RAR-related Orphan Receptor Element (RORE) (AID 2282959)
condition-details: HepG2 Attagene cis-factorial RORE reporter, mRNA; actives raise or lower the signal
Calls of active or inactive are those of the source. How the source made its calls: active means hit-call score of the fitted dose curve at least 0.9, where 1 is the maximum; inactive means score below 0.9.
Tick one outcome: class 1 = active, class 0 = inactive

>>> class("CC(=NC#N)N(C)Cc1ccc(Cl)nc1")
"class 0"

IN: Given CNc1cnn(-c2cccc(C(F)(F)F)c2)c(=O)c1Cl , state the outcome it received in this test.
OUT: class 1

IN: Given CCOP(=S)(Oc1cnc(C(C)(C)C)nc1)OC(C)C (centres undefined) , state the outcome it received in this test.
OUT: class 1

IN: Given CCOP(=O)(OCC)Oc1cc(C)nc(C(C)C)n1 , state the outcome it received in this test.
OUT: class 0

IN: Given Cc1ccn2nc(S(=O)(=O)Nc3c(F)cccc3F)nc2n1 , state the outcome it received in this test.
OUT: class 0

IN: Given CC1=NNC(=O)N(/N=C/c2cccnc2)C1 , state the outcome it received in this test.
OUT: class 0

IN: Given CCCCOC(=O)c1ccccc1C(=O)O , state the outcome it received in this test.
OUT: class 0

====

Read-out: Macrophage colony-stimulating factor (MCSF), CSF1 (gene 1435)
method-description: BSK_hDFCGF_MCSF: BioMAP Diversity Plus: hDFCGF Assay for Macrophage colony-stimulating factor (MCSF) Biomarker Activity (AID 2283060)
condition-details: primary human foreskin fibroblasts; actives raise or lower the signal
Activity calls are given as the source filed them. The calls were made as follows: active = hit-call score of the fitted dose curve at least 0.9, where 1 is the maximum; inactive = score below 0.9.
property: AC50

# count of solved cases: 5
>>> obs_value("CCCSP(=O)(OCC)Oc1ccc(Br)cc1Cl (configuration not stated)")
"17.4 µM (active)"
>>> obs_value("COc1cccc(C(=O)NN(C(=O)c2cc(C)cc(C)c2)C(C)(C)C)c1C")
"inactive"
>>> obs_value("COP(=O)(OC)C(O)C(Cl)(Cl)Cl (configuration not stated)")
"inactive"
>>> obs_value("C[N+]1(C)CCCCC1")
"inactive"
>>> obs_value("S=C1NCCN1")
"inactive"

IN: Need AC50, item CC(C)=CC1C(C(=O)OCN2C(=O)C3=C(CCCC3)C2=O)C1(C)C (configuration not stated)
OUT: 27.6 µM (active)

IN: Need AC50, item COP(=O)(OC)OC(Br)C(Cl)(Cl)Br (configuration not stated)
OUT: 16.4 µM (active)

====

Read-out: glucuronosyltransferase (UGT1A1), UGT1A1 (gene 54658)
method-description: CLD_UGT1A1_24hr: CellzDirect (CLD) Gene Expression Assay for glucuronosyltransferase (UGT1A1) at 24 hours (AID 2283696)
Method: CLD_24hr is a cell-based, multiplexed-readout assay that uses hepatocyte, a human liver primary cell, with measurements taken at 24 hours after chemical dosing in a 96-well plate.CLD_UGT1A1_24hr is one of 16 assay component(s) measured or calculated from the CLD_24hr assay. […] Furthermore, this assay endpoint can be referred to as a primary readout. […]
Results filed as inconclusive are left out. Activity calls are given as the source filed them. Rule for the calls: active = hit-call score of the fitted dose curve at least 0.9, where 1 is the maximum; inconclusive = response in the unintended direction; inactive = score below 0.9.
Tick one outcome: Yes for active, No for inactive

>>> class("CCOP(=S)(OCC)Oc1cc(C)nc(C(C)C)n1")
"Yes"

IN: Given CCCCN(CC)c1c([N+](=O)[O-])cc(C(F)(F)F)cc1[N+](=O)[O-] , state the outcome it received in this test.
OUT: Yes

IN: Given Cc1cc(C2CC2)nc(Nc2ccccc2)n1 , state the outcome it received in this test.
OUT: No

IN: Given COP(=O)(OC)OC(Br)C(Cl)(Cl)Br (configuration not stated) , state the outcome it received in this test.
OUT: No

IN: Given O=C(O)c1cc(Oc2ccc(C(F)(F)F)cc2Cl)ccc1[N+](=O)[O-] , state the outcome it received in this test.
OUT: No

IN: Given CC1(C(=O)Nc2ccc(O)c(Cl)c2Cl)CCCCC1 , state the outcome it received in this test.
OUT: No

IN: Given CCOP(=S)(OCC)OC(Cl)C(Cl)(Cl)Cl (configuration not stated) , state the outcome it received in this test.
OUT: No

IN: Given CC(COc1ccc(Oc2ccccc2)cc1)Oc1ccccn1 (configuration not stated) , state the outcome it received in this test.
OUT: Yes

IN: Given C[N+]1(C)CCCCC1 , state the outcome it received in this test.
OUT: No

IN: Given CN(C)C(=O)Nc1cccc(C(F)(F)F)c1 , state the outcome it received in this test.
OUT: No

====

Read-out: CYP2E1 (gene 1571)
method-description: LTEA_HepaRG_CYP2E1: Life Technologies and Expression Analysis (LTEA) Assay for CYP2E1 using HepaRG (AID 2283485)
condition-details: mRNA level, 48 h; actives raise or lower the signal
Calls of active or inactive are those of the source. How the source made its calls: active means hit-call score of the fitted dose curve at least 0.9, where 1 is the maximum; inactive means score below 0.9.
Tick one outcome: active, inactive

>>> class("CC(=NC#N)N(C)Cc1ccc(Cl)nc1")
"inactive"
>>> class("CCCCOC(=O)c1ccccc1C(=O)O")
"inactive"
>>> class("Cc1nn(-c2cc(NS(C)(=O)=O)c(Cl)cc2Cl)c(=O)n1C(F)F")
"active"

IN: Given Nc1nc(N)nc(NC2CC2)n1 , state the outcome it received in this test.
OUT: inactive

IN: Given COP(=O)(OC)OC(Br)C(Cl)(Cl)Br (stereo not drawn) , state the outcome it received in this test.
OUT: inactive

IN: Given S=C1NCCN1 , state the outcome it received in this test.
OUT: inactive

IN: Given CCOP(=S)(OCC)Oc1ccc([N+](=O)[O-])cc1 , state the outcome it received in this test.
OUT: active

IN: Given CC(Oc1cccc(Cl)c1)C(=O)O (stereo not drawn) , state the outcome it received in this test.
OUT: active

IN: Given CSC1=N[C@@](C)(c2ccccc2)C(=O)N1Nc1ccccc1 , state the outcome it received in this test.
OUT: active

IN: Given COc1cccc(C(=O)NN(C(=O)c2cc(C)cc(C)c2)C(C)(C)C)c1C , state the outcome it received in this test.
OUT: active

====

Read-out: Thyroid Hormone Responsive (THRSP), THRSP (gene 7069)
method-description: LTEA_HepaRG_THRSP: Life Technologies and Expression Analysis (LTEA) Assay for Thyroid Hormone Responsive (THRSP) using HepaRG (AID 2283536)
condition-details: mRNA level, 48 h; actives raise or lower the signal
The source made the active and inactive calls. The calls were made as follows: active = hit-call score of the fitted dose curve at least 0.9, where 1 is the maximum; inactive = score below 0.9.
Tick one outcome: active, inactive

>>> class("CC(=NC#N)N(C)Cc1ccc(Cl)nc1")
"inactive"
>>> class("CNC(=O)ON=C(C)SC")
"inactive"
>>> class("COP(=O)(OC)C(O)C(Cl)(Cl)Cl (configuration not stated)")
"inactive"
>>> class("COP(=O)(NC(C)=O)SC (configuration not stated)")
"inactive"
>>> class("CN(C)C(=O)Nc1cccc(C(F)(F)F)c1")
"inactive"

IN: Given CCOP(=S)(OCC)Oc1cc(C)nc(C(C)C)n1 , state the outcome it received in this test.
OUT: active

IN: Given CCOP(=S)(OCC)Oc1ccc([N+](=O)[O-])cc1 , state the outcome it received in this test.
OUT: inactive

IN: Given CNC(=O)ON=C(SC)C(=O)N(C)C , state the outcome it received in this test.
OUT: inactive

IN: Given CCc1cccc(CC)c1N(COC)C(=O)CCl , state the outcome it received in this test.
OUT: inactive

IN: Given CCOP(=S)(OCC)OC(Cl)C(Cl)(Cl)Cl (configuration not stated) , state the outcome it received in this test.
OUT: inactive

IN: Given Nc1nc(N)nc(NC2CC2)n1 , state the outcome it received in this test.
OUT: inactive

IN: Given COP(=O)(OC)SCn1c(=O)oc2cc(Cl)cnc21 , state the outcome it received in this test.
OUT: active

====

method-description: Tanguay_ZF_120hpf_YSE_legacy: (Legacy) Oregon State University Tanguay Lab 120 Hour Post-fertilization zebrafish Assay for Yolk Sac Edema (AID 2283634)
Records with an inconclusive call do not appear. The source made the active and inactive calls. The calls were made as follows: active = hit-call score of the fitted dose curve at least 0.9, where 1 is the maximum; inconclusive = response in the unintended direction; inactive = score below 0.9.
Tick one outcome: active, inactive

Known results for molecules:
>>> class("C#CCC1=C(C)C(OC(=O)C2C(C=C(C)C)C2(C)C)CC1=O (stereo unspecified)")
"inactive"
>>> class("CC[C@H](C)[C@H]1O[C@]2(C=C[C@@H]1C)C[C@@H]1C[C@@H](C/C=C(\\C)[C@@H](O[C@H]3C[C@H](OC)[C@@H](O[C@H]4C[C@H](OC)[C@@H](NC)[C@H](C)O4)[C@H](C)O3)[C@@H](C)/C=C/C=C3\\CO[C@@H]4[C@H](O)C(C)=C[C@@H](C(=O)O1)[C@]34O)O2")
"active"
>>> class("COP(=O)(OC)OC(Br)C(Cl)(Cl)Br (stereo unspecified)")
"inactive"
>>> class("C[N+]1(C)CCCCC1")
"inactive"
>>> class("CCCCOC(=O)[C@@H](C)Oc1ccc(Oc2ccc(C#N)cc2F)cc1")
"inactive"
>>> class("CCOP(=S)(OCC)Oc1cc(C)nc(C(C)C)n1")
"inactive"
>>> class("COc1cccc(C(=O)NN(C(=O)c2cc(C)cc(C)c2)C(C)(C)C)c1C")
"inactive"
>>> class("CCOP(=S)(OCC)Oc1ccc([N+](=O)[O-])cc1")
"inactive"
>>> class("CC1(C(=O)Nc2ccc(O)c(Cl)c2Cl)CCCCC1")
"inactive"
>>> class("CC(C)=CC1C(C(=O)OCN2C(=O)C3=C(CCCC3)C2=O)C1(C)C (stereo unspecified)")
"inactive"

IN: Given CSc1nnc(C(C)(C)C)c(=O)n1N , state the outcome it received in this test.
OUT: inactive

IN: Given CNc1cnn(-c2cccc(C(F)(F)F)c2)c(=O)c1Cl , state the outcome it received in this test.
OUT: inactive

IN: Given CCOP(=O)(SC(C)CC)N1CCSC1=O (stereo unspecified) , state the outcome it received in this test.
OUT: inactive
